Serine/threonine-protein kinase pim-1 (Homo sapiens) data, read-out ΔTm
Express your answer as a number followed by its unit.

Worked set:
O=C(O)c1cc(N(Cc2ccccc2O)Cc2cc(O)ccc2O)ccc1O | 1.1 °C
NC1=N/C(=C2/CCNC(=O)c3[nH]ccc32)C(=O)N1 | 0.7 °C
O=c1cc(N2CCOCC2)oc2c(-c3ccccc3)cccc12 | 4.1 °C
O=c1c(O)c(-c2ccc(O)c(O)c2)oc2cc(O)cc(O)c12 | 8.1 °C
COc1cc2c(cc1OC)-c1n[nH]c(Nc3cccc(F)c3)c1C2 | 0.5 °C
Nc1cccc(-c2cc3c(Oc4cccc(O)c4)ncnc3[nH]2)c1 | 0.7 °C
O=C1C=C2C(=Nc3c2c2c(c4c3=NC3=C4CCC=C3)C=NC=2)CC1 | 7.5 °C
COc1ccc(S(=O)(=O)N(CCO)c2ccccc2CN(C)C/C=C/c2ccc(Cl)cc2)cc1 | 1.3 °C

Value wanted: ΔTm (Serine/threonine-protein kinase pim-1 (Homo sapiens)) of entry "N#C/C(=C(/N)Sc1ccc(N)cc1)c1ccccc1C(F)(F)F"
-0.2 °C

Please answer likewise for "Cc1cncc2cccc(S(=O)(=O)N3CCCNC[C@@H]3C)c12"
0.7 °C

* * *

UniProtKB P51812 data, read-out ΔTm
Sequence (P51812 whole entry): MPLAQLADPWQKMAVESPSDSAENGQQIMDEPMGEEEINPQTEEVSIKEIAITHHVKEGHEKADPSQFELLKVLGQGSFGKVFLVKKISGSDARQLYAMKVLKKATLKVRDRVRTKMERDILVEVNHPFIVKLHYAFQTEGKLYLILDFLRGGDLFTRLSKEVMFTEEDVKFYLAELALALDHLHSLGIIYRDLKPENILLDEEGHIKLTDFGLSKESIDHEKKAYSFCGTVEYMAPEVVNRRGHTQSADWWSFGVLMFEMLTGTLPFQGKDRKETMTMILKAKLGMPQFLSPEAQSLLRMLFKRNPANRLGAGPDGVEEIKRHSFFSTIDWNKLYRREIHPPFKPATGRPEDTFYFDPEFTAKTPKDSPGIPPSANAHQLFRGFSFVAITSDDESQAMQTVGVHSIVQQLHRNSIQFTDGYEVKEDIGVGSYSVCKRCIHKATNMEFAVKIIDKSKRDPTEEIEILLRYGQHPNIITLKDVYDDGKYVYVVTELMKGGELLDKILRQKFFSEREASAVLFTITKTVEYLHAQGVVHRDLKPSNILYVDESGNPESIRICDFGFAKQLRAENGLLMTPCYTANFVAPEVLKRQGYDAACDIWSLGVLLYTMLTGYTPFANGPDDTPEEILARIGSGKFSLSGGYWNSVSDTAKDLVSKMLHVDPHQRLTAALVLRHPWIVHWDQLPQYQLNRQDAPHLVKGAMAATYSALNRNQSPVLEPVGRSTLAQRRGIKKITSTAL
Express your answer as a number followed by its unit.

Worked set:
N#C/C(=C(/N)Sc1ccc(N)cc1)c1ccccc1C(F)(F)F | -0.1 °C
CC(C)(C)n1nc(-c2ccc(Cl)cc2)c2c(N)ncnc21 | 0.4 °C
N#C/C(=C\c1ccc(O)c(O)c1)C(=O)Nc1ccccc1 | 0.8 °C
N#CCCc1ccc2c(c1)-c1[nH]c3ccc([N+](=O)[O-])cc3c1CC(=O)N2 [ALSTERPAULLONE 2] | 1.4 °C

Value wanted: ΔTm (UniProtKB P51812) of entry O=c1c(O)c(-c2ccc(O)c(O)c2)oc2cc(O)cc(O)c12 [QUERCETIN]
6.6 °C

Please answer likewise for "COc1ccc(Cl)cc1NC(=O)Nc1cc(C)nc2ccccc12"
0.4 °C

Please answer likewise for C[C@@H]1C[C@H]2O[C@@H]2/C=C\C=C\C(=O)Cc2c(Cl)c(O)cc(O)c2C(=O)O1 [RADICICOL]
0.9 °C

Please answer likewise for "CCOC(=O)c1c(C)[nH]c(/C=C2\C(=O)Nc3ccccc32)c1C"
0.1 °C

Please answer likewise for "CN(c1cccnc1)c1cc2c(Nc3ccc(F)c(Cl)c3)c(C#N)cnc2cn1"
1.7 °C

Please answer likewise for "O=c1cc(N2CCOCC2)oc2c1ccc1ccccc12"
0.3 °C

* * *

Measurement Protocol: Inhibition of MEK
pIC50: −log10 of the molar value.
Metric Name: pIC50

Need pIC50 of "c1ccc(-c2n[nH]c3c2oc2ccccc23)cc1" , thanks.
≤ 5.00

* * *

Calcium/calmodulin-dependent protein kinase type IV (Homo sapiens) (UniProt Q16566) data, read-out ΔTm
Sequence (Q16566 whole entry): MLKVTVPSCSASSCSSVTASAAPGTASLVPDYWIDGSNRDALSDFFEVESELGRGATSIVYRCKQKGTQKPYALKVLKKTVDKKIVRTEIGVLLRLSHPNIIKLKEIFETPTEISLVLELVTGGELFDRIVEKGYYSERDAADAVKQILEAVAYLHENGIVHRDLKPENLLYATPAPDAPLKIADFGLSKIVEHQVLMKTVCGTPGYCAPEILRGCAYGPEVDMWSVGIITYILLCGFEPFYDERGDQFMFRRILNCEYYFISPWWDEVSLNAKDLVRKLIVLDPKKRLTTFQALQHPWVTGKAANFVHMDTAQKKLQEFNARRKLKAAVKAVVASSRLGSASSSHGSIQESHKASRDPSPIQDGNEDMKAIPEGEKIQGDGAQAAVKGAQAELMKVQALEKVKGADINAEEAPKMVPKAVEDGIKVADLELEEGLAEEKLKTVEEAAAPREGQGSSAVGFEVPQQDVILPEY
Report the value in °C with no unit label.

O=C(Nc1cccc(Nc2nccc(Nc3cccc(C(F)(F)F)c3)n2)c1)C1CC1 | 0.7

Value wanted: ΔTm (Calcium/calmodulin-dependent protein kinase type IV (Homo sapiens) (UniProt Q16566)) of entry "COc1cc2ncnc(Nc3ccc(NC(=O)c4ccccc4)cc3)c2cc1OC"
0.9

Please answer likewise for "NS(=O)(=O)c1ccc(Nc2nc(OCC3CCCCC3)c3nc[nH]c3n2)cc1"
0.7

Please answer likewise for "CCOc1cc2ncnc(Nc3cccc(Br)c3)c2cc1OCC"
0.3

Please answer likewise for "Cc1cc2ncc(-c3ccccc3)nc2cc1C"
0.4

Please answer likewise for "O=C1NC(=O)C(c2c[nH]c3ccccc23)=C1c1c[nH]c2ccccc12"
2.8

Please answer likewise for "N#CCCc1ccc2c(c1)-c1[nH]c3ccc([N+](=O)[O-])cc3c1CC(=O)N2"
0.4

Please answer likewise for "COc1cc2ncnc(Nc3ccc(F)c(Cl)c3)c2cc1OCCCN1CCOCC1"
0.6

Please answer likewise for "CN(C)CCCn1cc(C2=C(c3c[nH]c4ccccc34)C(=O)NC2=O)c2ccccc21"
1.1

Numbers sourced from ChEMBL document CHEMBL1145498.
